- Test system: Plasmodium berghei
- EXPERIMENT DESCRIPTION: animal or person
- Format: in vivo, Plasmodium berghei (strain ANKA) in mice
- CONDITION SET: Plasmodium berghei, sc; single subcutaneous dose of 10 mg/kg, mice, blood smears 48 h after treatment; read-out: Growth inhibition in % after sc administration (GI%, percentage reduction of the parasitemia)
Where a name gives a salt, the structure may show the parent alone.
PROPERTY LABEL: inhibition in vivo at 10 mg/kg (%)
Dear colleague, please return just the value in %, with no unit written.

COMPOUND	TGT	inhibition in vivo at 10 mg/kg, %
CC(C)(CNc1ccnc2cc(Cl)ccc12)NCc1cccc(Cl)c1	Plasmodium berghei	73
CC(C)(CNc1ccnc2cc(Cl)ccc12)NCc1ccc(C#N)cc1.Cl.Cl [Example 49, dihydrochloride]	Plasmodium berghei	87
Cl.Cl.Clc1ccc(CN[C@H]2CC[C@@H](Nc3ccnc4cc(Cl)ccc34)CC2)cc1 [Example 72, dihydrochloride]	Plasmodium berghei	99.9

Indicate the recorded inhibition in vivo at 10 mg/kg value for this compound: CC(C)(CNc1ccnc2cc(Cl)ccc12)NCc1cccnc1.Cl.Cl.Cl [Example 57, trihydrochloride] 99.7

Consider the compound COc1ccc(O)c(CNC(C)(C)CNc2ccnc3cc(Cl)ccc23)c1.Cl.Cl [Example 31, dihydrochloride] . State its measured inhibition in vivo at 10 mg/kg. 98

Input CC(C)(CNc1ccnc2cc(Cl)ccc12)NCc1ccc(Cl)cc1Cl , output reported inhibition in vivo at 10 mg/kg. 69

Specify inhibition in vivo at 10 mg/kg for COc1cccc(OC)c1CN[C@H]1CC[C@@H](Nc2ccnc3cc(Cl)ccc23)CC1.Cl.Cl [Example 16, dihydrochloride] and stop. 99.9

# return recorded inhibition in vivo at 10 mg/kg for input Cl.Cl.O=[N+]([O-])c1ccc(CCN[C@H]2CC[C@H](Nc3ccnc4cc(Cl)ccc34)CC2)cc1 [Example 93, dihydrochloride] 99

Give the reported value of inhibition in vivo at 10 mg/kg for this record: Cl.Cl.Clc1ccc2c(N[C@H]3CCCC[C@@H]3NCc3ccccc3)ccnc2c1 87

Report inhibition in vivo at 10 mg/kg, nothing else, for this compound: COc1ccc(CN[C@H]2CC[C@@H](Nc3ccnc4cc(Cl)ccc34)CC2)cc1.Cl.Cl [Example 21, dihydrochloride] 100

For the compound Cl.Cl.FC(F)(F)c1ccc(CN[C@H]2CCCC[C@@H]2Nc2ccnc3cc(Cl)ccc23)c(C(F)(F)F)c1 [Example 64, dihydrochloride] , give its reported inhibition in vivo at 10 mg/kg. 66

Note down inhibition in vivo at 10 mg/kg recorded for Cl.Cl.Clc1ccc2c(N[C@H]3CC[C@@H](NCc4ccccc4)CC3)ccnc2c1 [Example 70, dihydrochloride] 99.9

Read off the recorded inhibition in vivo at 10 mg/kg for COc1cc(CN[C@H]2CC[C@H](Nc3ccnc4cc(Cl)ccc34)CC2)cc(OC)c1 99.5

Complete the entry with inhibition in vivo at 10 mg/kg for Cl.Cl.Fc1cccc(F)c1CN[C@H]1CC[C@H](Nc2ccnc3cc(Cl)ccc23)CC1 [Example 114, dihydrochloride] 99.9

Provide measured inhibition in vivo at 10 mg/kg value, entry: COc1cc(OC)c(CN[C@H]2CC[C@@H](Nc3ccnc4cc(Cl)ccc34)CC2)c(OC)c1.Cl.Cl [Example 14, dihydrochloride] 100

State, in one line, measured inhibition in vivo at 10 mg/kg of CC(C)(CNc1ccnc2cc(Cl)ccc12)NCc1ccc(F)c(Cl)c1 95

Tell me inhibition in vivo at 10 mg/kg reported for COc1cc(CNC(C)(C)CNc2ccnc3cc(Cl)ccc23)cc(OC)c1.Cl.Cl [Example 40, dihydrochloride] 95

Tell us which inhibition in vivo at 10 mg/kg value is on record for CC(C)(CNc1ccnc2cc(Cl)ccc12)NCc1ccc([N+](=O)[O-])cc1 [Example 47, dihydrochloride] 79
